Assay: Conversion rate of salt-form prodrugs to parent compound in HEPES buffer solution
Format: physicochemical
Conditions: conversion to Compound 1, HEPES buffer pH 7.4, 37 °C, 1 h
observationType: Release rate (%)
Number in %, nothing else.

Consider the following illustrative entries.
compound: CN(C)C[C@@H]1C(=O)O[C@H]2[C@H]1CC[C@@]1(C)C[C@]13CC[C@@](C)(O)[C@H]23 [compound 20]
Release rate / %: 6.2
//
compound: C[C@@]12CC[C@@H]3[C@H](OC(=O)[C@H]3CN3CCCCCCC3)[C@@H]3[C@]1(CC[C@@]3(C)O)C2 [compound 38]
Release rate / %: 6.9

Prompt: Note down Release rate recorded for C[C@@]12CC[C@@H]3[C@H](OC(=O)[C@H]3CN3CCCCC3)[C@@H]3[C@]1(CC[C@@]3(C)O)C2 [compound 24]
Response: 6.8

Prompt: Note down Release rate recorded for C[C@@]12CC[C@@H]3[C@H](OC(=O)[C@H]3CN3CCC(N4CCOCC4)CC3)[C@@H]3[C@]1(CC[C@@]3(C)O)C2 [compound 36]
Response: 6.9

* * *

Assay: Conversion rate of salt-form prodrugs to parent compound in HEPES buffer solution
Format: physicochemical
Conditions: conversion to Compound 1, HEPES buffer pH 7.4, 37 °C, 2 h
Experimental: Adjust the pH to 7.4 using 0.5 M NaOH, then dilute to a final volume 100 mL with distilled water. Sample Analysis: Dissolve 0.6 mg of the compound in 250 µl of deionized water separately. Add 250 µl of mouse serum or HEPES 7.4 solution to the sample, incubate at a constant temperature of 37 °C, and collect samples at different time points. Pipette 20 µl of the sample to an EP tube, add 60 µl of methanol, vortex to mix thoroughly, and centrifuge at 12,000 rpm at 4 °C for 10 min. […]
Form field: Release rate (one value per entry).
Number in %, nothing else.

molecule: C[C@@]12CC[C@@H]3[C@H](OC(=O)[C@H]3CN3CCC4(CC3)CC4)[C@@H]3[C@]1(CC[C@@]3(C)O)C2
reported: 16.8
//
molecule: C[C@@]12CC[C@@H]3[C@H](OC(=O)[C@H]3CN3CCC(N4CCCCC4)CC3)[C@@H]3[C@]1(CC[C@@]3(C)O)C2
reported: 14.6
//
molecule: CN(C)C[C@@H]1C(=O)O[C@H]2[C@H]1CC[C@@]1(C)C[C@]13CC[C@@](C)(O)[C@H]23 [compound 42]
reported: 15.0
//
molecule: C[C@@]12CC[C@@H]3[C@H](OC(=O)[C@H]3CN3CC4CCCC4C3)[C@@H]3[C@]1(CC[C@@]3(C)O)C2 (some centres unmarked)
reported: 15.4
//
molecule: CN(C)C[C@@H]1C(=O)O[C@H]2[C@H]1CC[C@@]1(C)C[C@]13CC[C@@](C)(O)[C@H]23 [compound 20]
reported: 13.8
//
molecule: CCCCN(CCCC)C[C@@H]1C(=O)O[C@H]2[C@H]1CC[C@@]1(C)C[C@]13CC[C@@](C)(O)[C@H]23
reported: 14.6
//
molecule: CN(C)C[C@@H]1C(=O)O[C@H]2[C@H]1CC[C@@]1(C)C[C@]13CC[C@@](C)(O)[C@H]23 [compound 41]
reported: 16.2

Field: next molecule
Prompt: Note down Release rate recorded for `C[C@@]12CC[C@@H]3[C@H](OC(=O)[C@H]3CN3CCC3)[C@@H]3[C@]1(CC[C@@]3(C)O)C2`
Response: 15.8
